Assay: GC/MS of blood plasma sample: time from blood collection to centrifugation (Table A)
Assay type: physicochemical, human
Details: different from individual to individual, individuals with increase, relative to 1 at 15 minutes, collection to centrifugation, after 4 hours
Quantity Measured: Rate of increase or decrease (first value, increase)
Response field accepts a number only; no unit should be typed.

Lab book: Rate of increase or decrease (first value, increase) of N[C@@H](CS(=O)O)C(=O)O noted as 1.88

Lab book: Rate of increase or decrease (first value, increase) of O=C(CO)[C@H](O)[C@H](O)CO noted as 4.41

Further cases:
Lab book: Rate of increase or decrease (first value, increase) of O=c1[nH]c(=O)c2[nH]cnc2[nH]1 noted as 1.83

* * *

Test: LC/MS of blood plasma sample: time from blood collection to centrifugation (Table D)
Format: physicochemical, human
Conditions: detection intensity, blood collection to centrifugation, after 12 hours vs 15 minutes
Quantity Measured: Increase or decrease

Lab book: Increase or decrease of NC(=O)NCCC[C@H](N)C(=O)O noted as Decrease

Lab book: Increase or decrease of N=C(N)NCCC[C@H](NC(CC(=O)O)C(=O)O)C(=O)O (some centres unmarked) noted as Decrease

* * *

Overview of recorded Rate of increase or decrease for various compounds
Experiment: GC/MS of serum sample: time from centrifugation to isolation (Table H)
Type: physicochemical, human
Settings: detection intensity relative to 1 at 30 minutes, after 6 hours

Take a look at these entries with their results.
Lab book: Rate of increase or decrease of O=C(O)[C@@H](O)[C@H](O)CO noted as 1.45

Lab book: Rate of increase or decrease of NC(=O)NC1NC(=O)NC1=O (stereo not shown) noted as 3.00

Lab book: Rate of increase or decrease of O=C(O)C(=O)CO [3-Hydroxypyruvic acid] noted as 1.88

Lab book: Rate of increase or decrease of NCCc1ccc(O)cc1 noted as 3.34

Further cases:
Lab book: Rate of increase or decrease of O=C(CO)[C@@H](O)[C@H](O)CO noted as 2.48

Lab book: Rate of increase or decrease of CCC(N)C(=O)O (stereo not shown) noted as 1.60

Lab book: Rate of increase or decrease of O=C(O)C(=O)O noted as 1.67

* * *

Assay: GC/MS of serum sample: time from centrifugation to isolation (Table H)
Type: physicochemical, human
Settings: detection intensity, after 6 hours vs 30 minutes
Quantity Measured: Increase or decrease

Take a look at these entries with their results.
Lab book: Increase or decrease of NCCc1ccc(O)cc1 noted as Increase

Lab book: Increase or decrease of O=C(O)C(=O)CO [3-Hydroxypyruvic acid] noted as Increase

Lab book: Increase or decrease of CC(=O)N[C@@H](CCC(N)=O)C(=O)O noted as Increase

Lab book: Increase or decrease of CC(=NO)C(=O)O noted as Increase

Lab book: Increase or decrease of O=C(O)C(=O)O noted as Increase

Further cases:
Lab book: Increase or decrease of CC(=O)CC(=O)O noted as Increase

Lab book: Increase or decrease of NC(=O)NC1NC(=O)NC1=O (centres unmarked) noted as Increase

Lab book: Increase or decrease of O=C(O)[C@@H](O)[C@H](O)CO noted as Increase

Lab book: Increase or decrease of O=c1cc[nH]c(=O)[nH]1 noted as Increase

Lab book: Increase or decrease of NO [Hydroxylamine] noted as Increase

* * *

Test: LC/MS of blood plasma sample: time from blood collection to centrifugation (Table D)
Type: physicochemical, human
Conditions: detection intensity relative to 1 at 15 minutes, blood collection to centrifugation, after 4 hours
# if measured Rate of increase or decrease < 2: y  # else: n

Take a look at these entries with their results.
Query: Just wondering, is Rate of increase or decrease of O=C(O)[C@@H]1CCCN1 [Proline] below 2?
Response: n

Query: Just wondering, is Rate of increase or decrease of OC[C@H]1O[C@@H](n2cnc3c(O)ncnc32)[C@H](O)[C@@H]1O [Inosine] below 2?
Response: n

Further cases:
Query: Just wondering, is Rate of increase or decrease of NCCc1c[nH]c2ccc(O)cc12 [Serotonin] below 2?
Response: n

Query: Just wondering, is Rate of increase or decrease of Nc1ncnc2c1ncn2[C@@H]1O[C@H](CSCC[C@H](N)C(=O)O)[C@@H](O)[C@H]1O [S-adenosylhomocysteine] below 2?
Response: y

Query: Just wondering, is Rate of increase or decrease of NC(=O)c1cccnc1 [Nicotinamide] below 2?
Response: y

Query: Just wondering, is Rate of increase or decrease of N[C@@H](CS)C(=O)O [Cysteine] below 2?
Response: y

Query: Just wondering, is Rate of increase or decrease of Nc1ccn([C@@H]2O[C@H](COP(=O)(O)O)[C@@H](O)[C@H]2O)c(=O)n1 [Cytidine monophosphate] below 2?
Response: y

Query: Just wondering, is Rate of increase or decrease of NC(=O)NC1NC(=O)NC1=O (centres unmarked) [Allantoin] below 2?
Response: y

* * *

Test: LC/MS of blood plasma sample: time from blood collection to centrifugation (Table D)
Assay type: physicochemical, human
Settings: detection intensity, blood collection to centrifugation, after 6 hours vs 15 minutes
Quantity Measured: Increase or decrease

Lab book: Increase or decrease of NCCc1ccc(O)c(O)c1 noted as Decrease

Lab book: Increase or decrease of O=c1[nH]c(=O)c2[nH]cnc2[nH]1 noted as Increase

Lab book: Increase or decrease of Nc1ncnc2nc[nH]c12 noted as Decrease

Lab book: Increase or decrease of N[C@@H](CC(=O)O)C(=O)O noted as Increase

Lab book: Increase or decrease of Nc1nc2c(ncn2[C@@H]2O[C@H](CO)[C@@H](O)[C@H]2O)c(=O)[nH]1 noted as Increase

Lab book: Increase or decrease of C[S+](CC[C@H](N)C(=O)[O-])C[C@H]1O[C@@H](n2cnc3c(N)ncnc32)[C@H](O)[C@@H]1O (some centres unmarked) noted as Decrease

We now examine a further compound.
Lab book: Increase or decrease of O=C(O)CC(O)C(=O)O (centres unmarked) noted as Decrease

* * *

Test: GC/MS of blood plasma sample: number of times of freezing and thawing (Table C)
Format: physicochemical, human
Conditions: detection intensity, freezing and thawing 4 times vs 2 times
Quantity Measured: Increase or decrease

Lab book: Increase or decrease of OB(O)O noted as Increase

Lab book: Increase or decrease of O=C(CO)[C@H](O)[C@H](O)CO noted as Increase

Lab book: Increase or decrease of CC(C)(CO)[C@@H](O)C(=O)NCCC(=O)O noted as Increase

* * *

Assay: LC/MS of serum sample: number of times of freezing and thawing (Table M)
Type: physicochemical, human
Design: key: detection intensity relative to 1 at 2 freeze-thaw cycles
Conditions: 6 times of freezing and thawing; relative to 1 at 2 times; different from individual to individual, first value (increase)
Quantity Measured: Rate of increase or decrease
Response field accepts a number only; no unit should be typed.

Take a look at these entries with their results.
Lab book: Rate of increase or decrease of C[C@@H](O)[C@H](N)C(=O)O noted as 1.31

Lab book: Rate of increase or decrease of CN(C)CC(=O)O noted as 1.34

Lab book: Rate of increase or decrease of N[C@@H](Cc1ccc(O)c(O)c1)C(=O)O noted as 1.30

Lab book: Rate of increase or decrease of CCC(N)C(=O)O (stereo not shown) noted as 1.31

Lab book: Rate of increase or decrease of Nc1ncnc2c1ncn2[C@@H]1O[C@H](CSCC[C@H](N)C(=O)O)[C@@H](O)[C@H]1O noted as 1.62

Further cases:
Lab book: Rate of increase or decrease of CC[C@H](C)[C@H](N)C(=O)O noted as 1.33

Lab book: Rate of increase or decrease of N=C(N)NCCC[C@H](NC(CC(=O)O)C(=O)O)C(=O)O (stereo partly shown) noted as 1.38

* * *

Assay: GC/MS of serum sample: time from blood collection to centrifugation (Table G)
Assay type: physicochemical, human
Details: detection intensity relative to 1 at 15 minutes, blood collection to centrifugation, after 8 hours
Overview of recorded Rate of increase or decrease for various compounds

Take a look at these entries with their results.
Lab book: Rate of increase or decrease of OC[C@@H](O)[C@@H](O)[C@H](O)[C@@H](O)CO [Sorbitol] noted as 1.54

Lab book: Rate of increase or decrease of CC(=O)CC(=O)O [Acetoacetic acid] noted as 1.46

Lab book: Rate of increase or decrease of O=C[C@H](O)[C@@H](O)[C@H](O)CO [Xylose] noted as 0.68

Lab book: Rate of increase or decrease of CCCCCCCCCC(=O)O [Decanoic acid] noted as 0.69

Lab book: Rate of increase or decrease of O=c1[nH]c(=O)c2[nH]c(=O)[nH]c2[nH]1 [Uric acid] noted as 0.69

We now examine a further compound.
Lab book: Rate of increase or decrease of O[C@H]1[C@H](O)[C@@H](O)[C@H](O)[C@@H](O)[C@@H]1O [Scyllo-inositol] noted as 0.66
